These data points were gathered from ChEMBL document CHEMBL5523727.

Test: Half life in mouse at 2 mg/kg, iv by LC-MS/MS analysis
Type: ADME, organism-based
Details: in vivo
observable: half-life (min)
Entry rule: numbers only, all in min.

Query: // query half-life value for entry CC(C)(O)c1cc2nc([C@H]3CC[C@H](CN4CC5(CC(CCNc6cccc7c6C(=O)N(C6CCC(=O)NC6=O)C7=O)C5)C4)CC3)sc2cc1NC(=O)c1cccc(C(F)(F)F)n1 (stereo partly specified) [ZOMIRADOMIDE]
Response: 516

---

Target: Protein cereblon/Interleukin-1 receptor-associated kinase 4 (Homo sapiens, UniProt Q9NWZ3+Q96SW2)
Sequence (Q9NWZ3 whole entry): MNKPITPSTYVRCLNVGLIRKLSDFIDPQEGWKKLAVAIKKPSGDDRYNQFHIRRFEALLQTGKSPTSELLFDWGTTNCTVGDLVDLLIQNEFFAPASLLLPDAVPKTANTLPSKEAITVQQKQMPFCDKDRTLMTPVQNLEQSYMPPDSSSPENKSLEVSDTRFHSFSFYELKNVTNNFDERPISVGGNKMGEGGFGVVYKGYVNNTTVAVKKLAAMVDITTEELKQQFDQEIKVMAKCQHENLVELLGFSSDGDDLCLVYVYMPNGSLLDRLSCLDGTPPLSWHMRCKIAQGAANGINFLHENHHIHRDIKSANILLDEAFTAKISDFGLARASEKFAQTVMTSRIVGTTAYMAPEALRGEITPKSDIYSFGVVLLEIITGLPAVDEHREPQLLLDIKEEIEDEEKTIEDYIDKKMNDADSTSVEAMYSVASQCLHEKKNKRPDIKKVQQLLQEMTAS
Sequence (Q96SW2 whole entry): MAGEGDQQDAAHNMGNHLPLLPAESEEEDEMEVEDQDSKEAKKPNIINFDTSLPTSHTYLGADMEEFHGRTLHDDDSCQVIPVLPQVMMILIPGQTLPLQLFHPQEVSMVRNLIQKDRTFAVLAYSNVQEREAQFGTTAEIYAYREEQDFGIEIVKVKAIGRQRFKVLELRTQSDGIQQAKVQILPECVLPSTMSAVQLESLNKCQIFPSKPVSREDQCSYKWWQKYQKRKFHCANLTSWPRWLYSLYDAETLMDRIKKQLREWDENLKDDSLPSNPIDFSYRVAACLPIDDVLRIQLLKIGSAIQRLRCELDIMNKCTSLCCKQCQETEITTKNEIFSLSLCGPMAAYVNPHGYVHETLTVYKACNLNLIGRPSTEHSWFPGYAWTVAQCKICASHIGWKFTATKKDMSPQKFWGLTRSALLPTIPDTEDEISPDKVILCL
Test: PROTAC activity at CRBN/IRAK4 in human OCI-Ly10 cells assessed as induction of IRAK4 degradation measured after 24 hrs by MSD assay
Assay type: cell-based
observable: DC50 (nM)
Entry rule: numbers only, all in nM.

Query: // query DC50 value for entry CN(CCCOc1cccc2c1CN(C1CCC(=O)NC1=O)C2=O)C[C@H]1CC[C@H](n2cc3cc(NC(=O)c4cccc(C(F)(F)F)n4)c(C(C)(C)O)cc3n2)CC1 (stereo partly drawn)
Response: 5

Query: // query DC50 value for entry COc1cc2nc([C@H]3CC[C@H](CN4CC5(CC(CCNc6cccc7c6C(=O)N(C6CCC(=O)NC6=O)C7=O)C5)C4)CC3)cn2cc1NC(=O)c1cccc(C(F)(F)F)n1 (stereo partly drawn)
Response: 38

Query: // query DC50 value for entry COc1cc2nn([C@H]3CC[C@H](CN4CC5(CC(CCNc6cccc7c6C(=O)N(C6CCC(=O)NC6=O)C7=O)C5)C4)CC3)cc2cc1NC(=O)c1cccc(C(F)(F)F)n1 (stereo partly drawn)
Response: 8
